Every entry's value here was drawn from the supplement of paper PMC11451515.

Can you tell me cell viability for the items I'm about to list?
# Tested on: SEM cells
# EXPERIMENT_DESCRIPTION: cell viability relative to DMSO control; higher = less cytotoxic
# MEASUREMENT_CONTEXT: RPMI 5 mM glucose + 10% FBS; 48 h; 0.569 µM
Please give the number followed by its unit.

Known cell viability results, listed for orientation:
> print(dat)
                                 smiles.str   quantity.name  recorded.result
1  CC(C)(Sc1cc(C(C)(C)C)c(O)c(C(C)(C)C)c1)Sc1cc(C(C)(C)C)c(O)c(C(C)(C)C)c1  cell viability            91.3%
2  CC(C)[C@H]1C(=O)N[C@H](CO)Cc2c[nH]c3cccc(c23)N1C  cell viability            92.3%
3  CCOC(=O)c1c(CSc2ccccc2)n(C)c2cc(Br)c(O)c(CN(C)C)c12  cell viability             125%

The following compounds each have a reported value; give each one's cell viability.
1. CNC(=O)c1nn(C)c2c1C(C)(C)Cc1cnc(Nc3ccc(N4CCN(C)CC4)cc3)nc1-2
2. COc1cccc(N(C)C(=S)Oc2ccc3c(c2)CCCC3)n1

OUTPUT:
["48.8%", "93.1%"]
